# Assay Overview: soluble on expression in E. coli; label from the status in PepcDB or PDB records

{"Residue Sequence": "MKLTPKELDKLMLHYAGELAKKRKEKGIKLNYVEAVALISAHIMEEARAGKKTAAELMQEGRTLLKPDDVMDGVASMIHEVGIEAMFPDGTKLVTVHTPIEANGKLVPGELFLKNEDITINEGKKAVSVKVKNVGDRPVQIGSHFHFFEVNRCLDFDREKTFGKRLDIAAGTAVRFEPGEEKSVELIDIGGNRRIFGFNALVDRQADNESKKIALHRAKERGFHGAKSDDNYVKTIKE", "soluble on expression in E. coli": "soluble"}
{"Residue Sequence": "MGSSHHHHHHSSGLVPRGSHMVESKNTELSQGTWLNKPKSVFQEAGKVTLETDEKTDFWRETFYGFTRDSGHFLGVETGSAFTAQVRVQGSYESLYDQAGIMVRIDDGHWLKAGIEISDGHAMLSSVLTNGKSDWSTAVYGGNARDFWLRVTVEKGVLRIQVSSDKKTWPLVRLAPFPTSDHYLVGPMACTPERGGLKVTFSEWSLTAPLGKALHDLS", "soluble on expression in E. coli": "soluble"}
